- ASSAY OVERVIEW: Caco-2 permeation assay
- Format: in vitro ADME
- EXPERIMENTAL SETUP: human; Caco-2 monolayer, 2 μM test compound, 2 h, pH 7.2; read-out: Papp B-A (Mari)
TEST READOUT: Papp B→A at 2 h, 2 μM

{"COMPOUND": "CS(=O)(=O)Cc1cccc(Nc2ncnc(-c3ccccc3OCc3cccc(F)c3)n2)c1 [Example 26]", "TEST READOUT": "Papp B→A at 2 h, 2 μM", "EXPERIMENTAL RESULT": "7.2 ×10⁻⁶ cm/s"}

###

- TESTED TARGET: CDK9/CycT1 (Homo sapiens, UniProt P50750)
- Construct: Recombinant full-length His-tagged human CDK9 and CycT1; His
- Sequence (P50750 whole entry): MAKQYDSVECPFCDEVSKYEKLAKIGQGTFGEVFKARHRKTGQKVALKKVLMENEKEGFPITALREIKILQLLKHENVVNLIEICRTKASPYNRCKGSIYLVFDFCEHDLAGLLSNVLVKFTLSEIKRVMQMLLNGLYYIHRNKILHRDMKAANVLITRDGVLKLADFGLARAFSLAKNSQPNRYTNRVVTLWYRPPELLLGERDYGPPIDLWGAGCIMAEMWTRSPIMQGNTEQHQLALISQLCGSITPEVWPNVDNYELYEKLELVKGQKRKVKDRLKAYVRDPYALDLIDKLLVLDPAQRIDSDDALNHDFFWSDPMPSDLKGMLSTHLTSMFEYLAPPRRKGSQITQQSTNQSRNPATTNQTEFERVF
- Sequence (O60563 whole entry partner): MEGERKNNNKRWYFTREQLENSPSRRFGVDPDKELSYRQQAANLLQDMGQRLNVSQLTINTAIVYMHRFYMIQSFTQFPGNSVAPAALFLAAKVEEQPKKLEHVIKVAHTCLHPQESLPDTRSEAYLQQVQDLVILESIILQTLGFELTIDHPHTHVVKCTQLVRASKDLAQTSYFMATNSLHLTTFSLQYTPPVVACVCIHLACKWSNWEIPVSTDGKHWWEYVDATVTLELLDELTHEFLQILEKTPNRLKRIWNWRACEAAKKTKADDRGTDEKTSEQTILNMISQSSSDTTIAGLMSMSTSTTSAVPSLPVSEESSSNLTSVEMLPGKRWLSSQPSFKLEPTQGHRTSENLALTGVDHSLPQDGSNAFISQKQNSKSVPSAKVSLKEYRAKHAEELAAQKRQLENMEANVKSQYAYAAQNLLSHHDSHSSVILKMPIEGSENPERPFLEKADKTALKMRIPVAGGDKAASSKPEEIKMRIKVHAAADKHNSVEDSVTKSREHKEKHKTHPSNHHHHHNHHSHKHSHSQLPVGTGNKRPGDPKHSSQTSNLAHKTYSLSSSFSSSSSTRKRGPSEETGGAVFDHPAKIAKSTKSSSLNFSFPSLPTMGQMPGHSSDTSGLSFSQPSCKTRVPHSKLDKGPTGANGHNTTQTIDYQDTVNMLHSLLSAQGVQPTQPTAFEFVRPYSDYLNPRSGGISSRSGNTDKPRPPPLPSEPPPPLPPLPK
- ASSAY OVERVIEW: CDK9/CycT1 kinase assay (TR-FRET)
- EXPERIMENTAL SETUP: Method 1, 10 μM ATP
pIC50: −log10 of the molar value.
Listing: pIC50 of selected compounds

{"INPUT SMILES": "CS(=O)(=O)Cc1cccc(Nc2ncnc(-c3ccc(F)cc3OC3CCCC3)n2)c1", "pIC50": 7.44}
{"INPUT SMILES": "CS(=O)(=O)Cc1cccc(Nc2ncnc(-c3ccccc3OCC(F)(F)F)n2)c1", "pIC50": 7.13}
{"INPUT SMILES": "CS(=O)(=O)Cc1cccc(Nc2ncnc(-c3ccccc3OCc3cccc(Cl)c3)n2)c1", "pIC50": 8.52}
{"INPUT SMILES": "COc1cc(F)ccc1-c1ncnc(Nc2cccc(CS(=O)(=O)C(C)C)c2)n1", "pIC50": 8.15}
{"INPUT SMILES": "CC#CCOc1cc(F)ccc1-c1ncnc(Nc2cccc(CS(C)(=O)=O)c2)n1", "pIC50": 8.52}
{"INPUT SMILES": "CS(=O)(=O)Cc1cccc(Nc2ncnc(-c3ccc(F)cc3OCc3ccnc(Cl)c3)n2)c1", "pIC50": 8.40}
{"INPUT SMILES": "CS(=O)(=O)Cc1cccc(Nc2ncnc(-c3ccc(F)cc3OCC3CCC3)n2)c1", "pIC50": 7.57}
{"INPUT SMILES": "CS(=O)(=O)Cc1cccc(Nc2ncnc(-c3ccccc3OCc3ccccc3Cl)n2)c1", "pIC50": 7.06}
{"INPUT SMILES": "CS(=O)(=O)Cc1cccc(Nc2ncnc(-c3ccc(F)cc3OCc3ccncc3)n2)c1", "pIC50": 8.30}
{"INPUT SMILES": "CS(=O)(=O)Cc1cccc(Nc2ncnc(-c3ccc(F)cc3OCC3CC3)n2)c1", "pIC50": 7.82}
{"INPUT SMILES": "[2H]C([2H])([2H])Oc1ccccc1-c1ncnc(Nc2cccc(CS(C)(=O)=O)c2)n1", "pIC50": 7.64}
{"INPUT SMILES": "COc1cc(Cl)ccc1-c1ncnc(Nc2cccc(CS(C)(=O)=O)c2)n1", "pIC50": 7.60}
{"INPUT SMILES": "CS(=O)(=O)Cc1cccc(Nc2ncnc(-c3ccc(F)cc3OCCF)n2)c1", "pIC50": 8.10}
{"INPUT SMILES": "CS(=O)(=O)Cc1cccc(Nc2ncnc(-c3ccc(F)cc3OCc3ccc(Cl)cc3)n2)c1", "pIC50": 8.22}
{"INPUT SMILES": "CC(C)CCCOc1cc(F)ccc1-c1ncnc(Nc2cccc(CS(C)(=O)=O)c2)n1", "pIC50": 8.30}
{"INPUT SMILES": "CC(C)S(=O)(=O)Cc1cccc(Nc2ncnc(-c3ccccc3OCc3ccc(F)cc3)n2)c1", "pIC50": 8.05}
{"INPUT SMILES": "CS(=O)(=O)Cc1cccc(Nc2ncnc(-c3ccc(F)cc3OCc3ccc(C#N)cc3)n2)c1", "pIC50": 8.52}

###

- ASSAY OVERVIEW: Caco-2 permeation assay
- Type: in vitro ADME
- EXPERIMENTAL SETUP: human; Caco-2 monolayer, 2 μM test compound, 2 h, pH 7.2; read-out: Papp A-B (Mari)

{"COMPOUND": "CS(=O)(=O)Cc1cccc(Nc2ncnc(-c3ccccc3OCc3cccc(F)c3)n2)c1 [Example 26]", "Papp A→B at 2 h, 2 μM [×10⁻⁶ cm/s]": 16.9}

###

- TESTED TARGET: CDK9/CycT1 (Homo sapiens, UniProt P50750)
- Construct: Recombinant full-length His-tagged human CDK9 and CycT1; His
- ASSAY OVERVIEW: CDK9/CycT1 kinase assay (TR-FRET)
- EXPERIMENTAL SETUP: Method 1, 10 μM ATP
TEST READOUT: IC50 (nM)

{"MOLECULE": "COc1cc(F)ccc1-c1ncnc(Nc2cccc(CS(=O)(=O)C3CCCCC3)c2)n1 [Example 9]", "TESTED TARGET": "CDK9/CycT1 (Homo sapiens, UniProt P50750)", "READING UNIT": "nM", "EXPERIMENTAL RESULT": 10}
{"MOLECULE": "CC(C)S(=O)(=O)Cc1cccc(Nc2ncnc(-c3cc(F)ccc3OCc3cccc(F)c3)n2)c1 [Example 38]", "TESTED TARGET": "CDK9/CycT1 (Homo sapiens, UniProt P50750)", "READING UNIT": "nM", "EXPERIMENTAL RESULT": 6}
{"MOLECULE": "Cc1cc(COc2cc(F)ccc2-c2ncnc(Nc3cccc(CS(C)(=O)=O)c3)n2)ccn1 [Example 87]", "TESTED TARGET": "CDK9/CycT1 (Homo sapiens, UniProt P50750)", "READING UNIT": "nM", "EXPERIMENTAL RESULT": 6}

###

- System: NCI-H460, human non-small cell lung carcinoma cells
- ASSAY OVERVIEW: Proliferation assay (crystal violet), NCI-H460
- Type: cell-based
- EXPERIMENTAL SETUP: read-out: Inhibition of H460 cell proliferation (activity range)
# key: entry, value: IC50

{"COMPOUND": "CS(=O)(=O)Cc1cccc(Nc2ncnc(-c3cccc4c3OCCC4)n2)c1 [Example 12]", "IC50 [nM]": 410}
{"COMPOUND": "CS(=O)(=O)Cc1cccc(Nc2ncnc(-c3ccc(F)cc3OCc3ccccc3)n2)c1 [Example 4]", "IC50 [nM]": 150}
{"COMPOUND": "COc1cc(F)c(F)cc1-c1ncnc(Nc2cccc(CS(C)(=O)=O)c2)n1 [Example 1]", "IC50 [nM]": 910}

###

- TESTED TARGET: CDK9/CycT1 (Homo sapiens)
- Construct: Recombinant full-length His-tagged human CDK9 and CycT1; His
- ASSAY OVERVIEW: CDK9/CycT1 kinase assay (TR-FRET)
- EXPERIMENTAL SETUP: Method 1, 10 μM ATP
pIC50: −log10 of the molar value.

{"INPUT SMILES": "CS(=O)(=O)Cc1cccc(Nc2ncnc(-c3ccccc3OCc3cccc(F)c3)n2)c1", "pIC50": 8.52}
{"INPUT SMILES": "CS(=O)(=O)Cc1cccc(Nc2ncnc(-c3ccc(F)cc3OCCC3CCCCC3)n2)c1", "pIC50": 6.77}
{"INPUT SMILES": "CC(C)COc1cc(F)ccc1-c1ncnc(Nc2cccc(CS(C)(=O)=O)c2)n1", "pIC50": 7.34}
{"INPUT SMILES": "CS(=O)(=O)Cc1cccc(Nc2ncnc(-c3ccc(F)cc3OCC(F)F)n2)c1", "pIC50": 7.66}
{"INPUT SMILES": "CS(=O)(=O)Cc1cccc(Nc2ncnc(-c3cc(F)ccc3OCc3ccccc3F)n2)c1", "pIC50": 7.49}
{"INPUT SMILES": "CS(=O)(=O)Cc1cccc(Nc2ncnc(-c3ccc(F)cc3OCc3ccnc(F)c3)n2)c1", "pIC50": 9.00}
{"INPUT SMILES": "CCCCOc1cc(F)ccc1-c1ncnc(Nc2cccc(CS(C)(=O)=O)c2)n1", "pIC50": 8.05}
{"INPUT SMILES": "COCCS(=O)(=O)Cc1cccc(Nc2ncnc(-c3ccc(F)cc3OC)n2)c1", "pIC50": 7.92}
{"INPUT SMILES": "CCCCCCOc1cc(F)ccc1-c1ncnc(Nc2cccc(CS(C)(=O)=O)c2)n1", "pIC50": 7.82}
{"INPUT SMILES": "CS(=O)(=O)Cc1cccc(Nc2ncnc(-c3ccc(F)cc3OCC3(F)CCCCC3)n2)c1", "pIC50": 7.66}
{"INPUT SMILES": "CC(C)Oc1cc(F)ccc1-c1ncnc(Nc2cccc(CS(C)(=O)=O)c2)n1", "pIC50": 7.60}

###

Measured pIC50 values are reported for all entries that follow.
- TESTED TARGET: CDK2/CycE (Homo sapiens, UniProt P24941)
- Construct: GST
- ASSAY OVERVIEW: CDK2/CycE kinase assay (TR-FRET)
- EXPERIMENTAL SETUP: Method 2, 10 μM ATP
- Text: 2. CDK2/CycE Kinase Assay: CDK2/CycE-inhibitory activity of compounds of the present invention was quantified employing the CDK2/CycE TR-FRET assay as described in the following paragraphs: Recombinant fusion proteins of GST and human CDK2 and of GST and human CycE, expressed in insect cells (Sf9) and purified by Glutathion-Sepharose affinity chromatography, were purchased from ProQinase GmbH (Freiburg, Germany). As substrate for the kinase reaction biotinylated peptide biotin-Ttds-[…] […]
pIC50: −log10 of the molar value.

{"INPUT SMILES": "CS(=O)(=O)Cc1cccc(Nc2ncnc(-c3ccc(F)cc3OCc3ccc(C(F)(F)F)cc3)n2)c1", "TESTED TARGET": "CDK2/CycE (Homo sapiens, UniProt P24941)", "SIGN QUALIFIER": "≤", "pIC50": 4.70}
{"INPUT SMILES": "CC1(COc2cc(F)ccc2-c2ncnc(Nc3cccc(CS(C)(=O)=O)c3)n2)CC1", "TESTED TARGET": "CDK2/CycE (Homo sapiens, UniProt P24941)", "SIGN QUALIFIER": "=", "pIC50": 6.19}
{"INPUT SMILES": "COc1c(-c2ncnc(Nc3cccc(CS(C)(=O)=O)c3)n2)ccc(F)c1F", "TESTED TARGET": "CDK2/CycE (Homo sapiens, UniProt P24941)", "SIGN QUALIFIER": "=", "pIC50": 5.07}
{"INPUT SMILES": "CS(=O)(=O)Cc1cccc(Nc2ncnc(-c3cccc4c3OC(F)(F)O4)n2)c1", "TESTED TARGET": "CDK2/CycE (Homo sapiens, UniProt P24941)", "SIGN QUALIFIER": "=", "pIC50": 5.89}
{"INPUT SMILES": "CC(C)CCOc1cc(F)ccc1-c1ncnc(Nc2cccc(CS(C)(=O)=O)c2)n1", "TESTED TARGET": "CDK2/CycE (Homo sapiens, UniProt P24941)", "SIGN QUALIFIER": "=", "pIC50": 5.40}
